test system: OVCAR-5 ovarian; assay: NCI tumour cell line growth inhibition, 48 h
Catalogue of TGI values
assay.endpoint: TGI (µM)

molecule=O=C(NCCCN1CCN(CCCNC(=O)c2cc(-c3ccccc3)nc3ccccc23)CC1)c1cc(-c2ccccc2)nc2ccccc12 inequality_sign=> result_value=78.2
molecule="NCCCC(N)(C(=O)O)C(F)F (stereo unspecified)" inequality_sign=> result_value=4800
molecule=COc1cc(C(=O)c2cnc(-c3ccc4cc[nH]c4c3)[nH]2)cc(OC)c1OC inequality_sign== result_value=23.9
molecule=CCCCCCc1cc2cc(-c3cn4ccccc4n3)c(=O)oc2cc1O inequality_sign== result_value=51.7
molecule=O=C(C(=O)c1cccnc1)c1cccnc1 inequality_sign=> result_value=100
molecule=Fc1ccc(-c2c(-c3ccncc3)[nH]c3cccnc23)cc1 inequality_sign=> result_value=25
molecule="COC1/C=C/OC2(C)Oc3c(C)c(O)c4c(O)c(c(/C=N/N(c5ccccc5)c5ccccc5)c(O)c4c3C2=O)NC(=O)C(C)=C/C=C/C(C)C(O)C(C)C(O)C(C)C(OC(C)=O)C1C (stereo unspecified)" inequality_sign== result_value=10.9
molecule=C#Cc1cccc(Nc2ncnc3ccc(-c4cnc(N)nc4)cc23)c1 inequality_sign== result_value=14.6
molecule=CCOC(=O)Cc1ccc(Nc2nc3cc(F)c(F)cc3nc2C(=O)OCC)cc1 inequality_sign=> result_value=100
molecule=Oc1ccccc1/C=N\Nc1ccccc1 inequality_sign== result_value=39.2
molecule=CC1=NC(=O)CNN1C1=NNC2(C(=O)N1)c1ccccc1-c1ccccc12 inequality_sign=> result_value=100
